# Tested on: N27 rat dopaminergic cells
# procedure-text: Suppression of ferroptosis induced by RSL3 in N27 cells (CellTiter-Glo viability)
# Assay type: cell-based
# experimental-context: Rattus norvegicus, N27, 48 h, Table 13; 20 nM RSL3; treated for 48 hours^e; read-out: IC50
Please provide measured pIC50 for the entries that follow.
# log scale: pIC50 equals minus log10 of the concentration in mol/L

INPUT: # input molecule: "COc1ccc(NC(C)C)c(NC(C)C)n1" ; wanted: its pIC50
OUTPUT: 9.66

INPUT: # input molecule: "Cc1noc(-c2cnc(NC3CCCCC3)c(NC3CCCC3)c2)n1" ; wanted: its pIC50
OUTPUT: 8.09

INPUT: # input molecule: "COc1ccc(NC2CCCCC2)c(NC(C)C)n1" ; wanted: its pIC50
OUTPUT: 7.65

INPUT: # input molecule: "COc1ccc(N)c(NC(C)C)n1" ; wanted: its pIC50
OUTPUT: 7.47

INPUT: # input molecule: "Cc1noc(-c2cc(N(C(C)C)C(C)C)cnc2NC2CCCCC2)n1" ; wanted: its pIC50
OUTPUT: 5.98

###

# procedure-text: TH-2-31, TH-4-55-2, TH-4-67 PK Study (IP, IV, PO; plasma and brain)
# Format: in vivo, C57BL/6 mice
# experimental-context: both sexes, C57BL/6, mouse, plasma, iv, 20 mg/kg
Please provide measured Cmax for the entries that follow.
Lab book: enter the figure in µM, no units written.

INPUT: # input molecule: Cc1noc(-c2cnc(NC3CCCC3)c(NC3CCCC3)c2)n1 [TH-4-67] ; wanted: its Cmax
OUTPUT: 40.6

INPUT: # input molecule: Cc1noc(-c2cnc(NC3CCCCC3)c(NC3CCCCC3)c2)n1 [TH-2-31] ; wanted: its Cmax
OUTPUT: 25.8

INPUT: # input molecule: CCC(CC)Nc1cc(-c2nc(C)no2)cnc1NC1CCCCC1 [TH-4-55-2] ; wanted: its Cmax
OUTPUT: 32.1

###

# procedure-text: TH-2-31, TH-4-55-2, TH-4-67 PK Study (IP, IV, PO; plasma and brain)
# Type: in vivo, C57BL/6 mice
# experimental-context: both sexes, C57BL/6, mouse, plasma; all routes of administration, 20 mg/kg; read-out: concentration in plasma 24 hours after administration
readout-label: concentration at 24 h

INPUT: # input compound: "CCC(CC)Nc1cc(-c2nc(C)no2)cnc1NC1CCCCC1" ; wanted: its concentration at 24 h
OUTPUT: > 800 nM

INPUT: # input compound: "Cc1noc(-c2cnc(NC3CCCC3)c(NC3CCCC3)c2)n1" ; wanted: its concentration at 24 h
OUTPUT: < 25 nM

INPUT: # input compound: "Cc1noc(-c2cnc(NC3CCCCC3)c(NC3CCCCC3)c2)n1" ; wanted: its concentration at 24 h
OUTPUT: > 500 nM

###

# procedure-text: PHB4082 IP, IV Study (cyclodextrin/PEG/tween vehicle)
# Type: in vivo, C57BL/6 mice
# experimental-context: both sexes, C57BL/6, mouse, brain, 10 mg/kg; IP Administration, 4 hr; read-out: [PHB4082]brain
readout-label: concentration at 4 h

INPUT: # input molecule: "Cc1noc(-c2ccc(NC3CCCCC3)c(NC3CCCCC3)c2)n1" ; wanted: its concentration at 4 h
OUTPUT: 99 nM

Data provenance is patent US20240156790A1.
